These data points were gathered from the nanobody polyreactivity screen of Harvey et al. (2022).

- assay-notes: yeast display, Sf9 membrane polyspecificity reagent, FACS + sequencing; frameworks hold sequencing errors

| construct-sequence | polyreactivity (PSR sort gate) |
| --- | --- |
| QVQLVESGGGLVQAGGSLRLSCAASGRIFNLYAMGWYRQAPGKERELVAAISWRGGSTYYADSVKGRFTISRDNAKNTVYLQMNSLKPEDTAVYYCAATFFTYVYRYYYWGQGTQVTVSS | high polyreactivity |
| QVQLVESGGGLVQAGGSLRLSCADSGRTFRRYKMGWYRQAPGKERELVATISSGGSTYADSVKGRFTISRDNAKNTVYLQMNSLKPEDTAVYYCAARYDVAWYSKRYSWGQGTQVTVSS | high polyreactivity |
